EC50 by entry:
- assay_system: Endoribonuclease toxin MazF (Escherichia coli K-12)
- Sequence (P0AE70 whole entry): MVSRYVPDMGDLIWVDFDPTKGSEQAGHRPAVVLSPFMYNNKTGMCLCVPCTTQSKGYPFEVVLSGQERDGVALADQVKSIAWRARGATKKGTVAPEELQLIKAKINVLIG
- assay_comment: substrate-only fluorescence increase artefacts – biochemical, single-stranded RNase substrate, counter-screen for MazEF activator project, dose response (AID 588502)
- Assay type: functional
Calls of active or inactive are those of the source.

[
  {
    "query_smiles": "Cc1nc2ccc(C(=O)OCc3ccccc3Br)cc2nc1C",
    "assay_system": "Endoribonuclease toxin MazF (Escherichia coli K-12)",
    "EC50": "> 99 µM (inactive)"
  },
  {
    "query_smiles": "CC1=Nc2ccccc2/C1=C\\c1nc(-c2ccc(F)cc2)oc1O",
    "assay_system": "Endoribonuclease toxin MazF (Escherichia coli K-12)",
    "EC50": "55.9 µM (inactive)"
  },
  {
    "query_smiles": "Cc1ccc(S(=O)(=O)N(CC(=O)N/N=C\\c2cccs2)c2cccc3cccnc23)cc1",
    "assay_system": "Endoribonuclease toxin MazF (Escherichia coli K-12)",
    "EC50": "> 99 µM (inactive)"
  },
  {
    "query_smiles": "NNS(=O)(=O)c1ccc(N2CCCC2=O)c([N+](=O)[O-])c1",
    "assay_system": "Endoribonuclease toxin MazF (Escherichia coli K-12)",
    "EC50": "> 99 µM (inactive)"
  },
  {
    "query_smiles": "Clc1ccc(-c2nnc3sc(-c4ccc(Br)o4)nn23)cc1",
    "assay_system": "Endoribonuclease toxin MazF (Escherichia coli K-12)",
    "EC50": "> 99 µM (inactive)"
  },
  {
    "query_smiles": "CCn1c(/C=C/c2c(C)[nH]c3ccccc23)nc2ccccc2c1=O",
    "assay_system": "Endoribonuclease toxin MazF (Escherichia coli K-12)",
    "EC50": "> 99 µM (inactive)"
  }
]

* * *

IC50 by entry:
- assay_system: High affinity choline transporter 1 (Homo sapiens)
- Sequence (Q9GZV3 whole entry): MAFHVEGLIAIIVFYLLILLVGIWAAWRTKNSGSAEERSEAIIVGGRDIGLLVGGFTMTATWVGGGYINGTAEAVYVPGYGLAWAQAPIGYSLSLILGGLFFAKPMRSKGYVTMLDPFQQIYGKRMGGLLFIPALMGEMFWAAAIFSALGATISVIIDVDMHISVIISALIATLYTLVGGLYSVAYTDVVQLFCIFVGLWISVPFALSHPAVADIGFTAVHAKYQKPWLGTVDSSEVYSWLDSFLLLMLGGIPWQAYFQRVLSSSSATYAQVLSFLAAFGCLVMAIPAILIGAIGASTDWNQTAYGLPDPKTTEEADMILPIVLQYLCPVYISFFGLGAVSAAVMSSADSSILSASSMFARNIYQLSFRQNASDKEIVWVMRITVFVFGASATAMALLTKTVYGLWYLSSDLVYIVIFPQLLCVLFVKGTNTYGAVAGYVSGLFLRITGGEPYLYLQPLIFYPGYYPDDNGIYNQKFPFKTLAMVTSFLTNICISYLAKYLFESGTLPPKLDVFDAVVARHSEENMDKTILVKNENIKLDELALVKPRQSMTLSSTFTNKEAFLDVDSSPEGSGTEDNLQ
- assay_comment: human choline transporter blockers, potency – cell-based, 5-point CRC, membrane potential dye, dose response (AID 504840)
- Type: functional
Calls of active or inactive are those of the source.
assay_metric: IC50

[
  {
    "molecule": "Cc1cc(C(=O)CSc2n[nH]c(N)n2)c(C)n1-c1cc(F)ccc1F",
    "result": "11.2 µM (active)"
  },
  {
    "molecule": "COc1ccc(C(CNC(=O)c2cc(S(=O)(=O)NCc3ccccc3)ccc2C)N2CCOCC2)cc1 (stereo not drawn)",
    "result": "11 µM (active)"
  },
  {
    "molecule": "COCCCNC(=O)c1ccc(OC)c(OC2CCN(C(C)C)CC2)c1",
    "result": "2.51 µM (active)"
  }
]

* * *

- assay_system: Low molecular weight phosphotyrosine protein phosphatase (Homo sapiens);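 note: Dose-response confirmation assay measuring inhibition of LMPTP enzyme activity by fluorescence intensity read-out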
- Sequence (P24666 whole entry): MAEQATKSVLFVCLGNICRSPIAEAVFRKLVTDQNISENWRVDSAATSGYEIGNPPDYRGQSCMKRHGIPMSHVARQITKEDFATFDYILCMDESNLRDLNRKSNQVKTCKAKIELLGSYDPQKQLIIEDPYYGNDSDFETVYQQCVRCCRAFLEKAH
- Format: functional
- experimental_parameters: read-out: IC50_Mean
The source made the active and inactive calls.
Classes used: active, inactive

[
  {
    "compound": "CCCCOc1ccc(C2C(C(=O)c3ccc(C)o3)=C(O)C(=O)N2Cc2ccco2)cc1 (centres undefined)",
    "assay_system": "Low molecular weight phosphotyrosine protein phosphatase (Homo sapiens)",
    "assigned_label": "inactive"
  },
  {
    "compound": "COc1ccc(-c2csc(N3CCN(c4cc(C)nc5ccccc45)CC3)n2)cc1OC",
    "assay_system": "Low molecular weight phosphotyrosine protein phosphatase (Homo sapiens)",
    "assigned_label": "active"
  },
  {
    "compound": "O=c1cc(-c2ccsc2)oc2cc(-c3ccc4c(c3)OCO4)ccc12",
    "assay_system": "Low molecular weight phosphotyrosine protein phosphatase (Homo sapiens)",
    "assigned_label": "active"
  },
  {
    "compound": "O=C1NC(=O)N(CCc2ccc(F)cc2)C(=O)/C1=C\\NCc1ccc2c(c1)OCO2",
    "assay_system": "Low molecular weight phosphotyrosine protein phosphatase (Homo sapiens)",
    "assigned_label": "active"
  }
]
